- Tested on: Staphylococcus aureus
- assay.method.text: Antibacterial activity against Staphylococcus aureus ATCC 29213 after 18 hrs by EUCAST broth dilution method
- Assay type: functional
- condition.set: Staphylococcus aureus, ATCC 29213, 18 h
Listed molecules paired with reported MIC

Some molecules with known MIC results, for comparison:
INSERT INTO assay_data (smiles, result_value) VALUES
  ('CCn1cc(C(=O)O)c(=O)c2cc(F)c(N3CCN(S(=O)(=O)c4ccc(OC)c(OC)c4)CC3)cc21', '0.962 µM'),
  ('CCn1cc(C(=O)O)c(=O)c2cc(F)c(N3CCN(S(=O)(=O)c4ccc(Cl)cc4Cl)CC3)cc21', '≤ 0.473 µM'),
  ('COc1ccc(S(=O)(=O)N2CCN(c3cc4c(cc3F)c(=O)c(C(=O)O)cn4C3CC3)CC2)cc1OC', '≤ 0.47 µM'),
  ('CCn1cc(C(=O)O)c(=O)c2cc(F)c(N3CCN(S(=O)(=O)c4ccc(Cl)c(Cl)c4)CC3)cc21', '≤ 0.473 µM'),
  ('Cc1c(C)c(C)c(S(=O)(=O)N2CCN(c3cc4c(cc3F)c(=O)c(C(=O)O)cn4C3CC3)CC2)c(C)c1C', '≥ 473 µM');

Now turn to the next molecule.
Data request: For the molecule shown here, CCn1cc(C(=O)O)c(=O)c2cc(F)c(N3CCN(S(=O)(=O)c4ccc(F)cc4F)CC3)cc21 , give the reported MIC.
Data returned: 8.07 µM

Reference for the values: ChEMBL document CHEMBL1909615
